Measured ΔH (change in heart rate), listed per entry for reference.
- System: rabbits
- Assay notes: In vivo neuromuscular block and cardiovascular side effects, rabbit (Example 8, Table 7)
- Condition notes: at 80-85% neuromuscular blocking dose

| Compound | ΔH (change in heart rate) |
| --- | --- |
| CCC(=O)Oc1ccc(C[N+]2(C)[C@@H]3CC[C@H]2C[C@@H](OC(=O)C2CCC2C(=O)O[C@H]2C[C@H]4CC[C@@H](C2)[N+]4(C)Cc2ccc(OC(=O)CC)c(OC(=O)CC)c2)C3)cc1OC(=O)CC.[Br-].[Br-] (stereo partly drawn) | 0% |
| CC[N+]1(C)[C@@H]2CC[C@H]1C[C@@H](OC(=O)CCCCC(=O)O[C@H]1C[C@H]3CC[C@@H](C1)[N+]3(C)CC)C2.[I-].[I-] (stereo partly drawn) [reference compound] | 0% |
| CC(=O)Oc1ccc(C[N+]2(C)[C@@H]3CC[C@H]2C[C@@H](OC(=O)C2CCC2C(=O)O[C@H]2C[C@H]4CC[C@@H](C2)[N+]4(C)Cc2ccc(OC(C)=O)c(OC(C)=O)c2)C3)cc1OC(C)=O.[Br-].[Br-] (stereo partly drawn) | 0% |
